Test system: U138-MG human glioma cell
Test: Cell proliferation analysis (MTT)
Type: cell-based
Applied Conditions: Homo sapiens, 48 h, 10 µM, two days, MTT
Property Measured: inhibition at 10 µM (%)
All answers are understood in %, so give the number only.

Query block: Report value: inhibition at 10 µM, system: U138-MG human glioma cell, compound: CCOC(=O)Cn1cc(COc2ccc3c(c2)CCC(=O)N3)nn1
Result block: 29

Query block: Report value: inhibition at 10 µM, system: U138-MG human glioma cell, compound: O=C1CCc2cc(OCc3cc(-c4ccc(F)cc4)no3)ccc2N1
Result block: 30

Query block: Report value: inhibition at 10 µM, system: U138-MG human glioma cell, compound: O=C1CCc2cc(OC(=O)Nc3ccccc3Br)ccc2N1
Result block: 40

Query block: Report value: inhibition at 10 µM, system: U138-MG human glioma cell, compound: COc1ccc(C(=O)Oc2ccc3c(c2)CCC(=O)N3)cc1OC
Result block: 35

Query block: Report value: inhibition at 10 µM, system: U138-MG human glioma cell, compound: COc1ccc(C(=O)Oc2ccc3c(c2)CCC(=O)N3)c(OC)c1
Result block: 13

###

Recorded MCHC, one value per entry.
Test: In vivo GBM rat model: haematology
Applied Conditions: GBM rats, 30 mg/kg oral, 5 days, blood at necropsy
All answers are understood in g/dL, so give the number only.

Use these answered entries as a reference point.
1. Cn1nnc2c(C(N)=O)ncn2c1=O [TMZ, Temozolomide, reference compound]: 31.47
2. C=Cc1ccc(COc2ccc3c(c2)CCC(=O)N3)cc1: 30.07
3. O=C(COc1ccc2c(c1)CCC(=O)N2)N/N=C/c1cnc(-c2ccc(Cl)cc2)nc1: 31.11
4. COc1cc(NC(=O)COc2ccc3c(c2)CCC(=O)N3)cc(OC)c1: 31.40
5. CC(C)CCOc1ccc2c(c1)CCC(=O)N2: 30.71
6. O=C1CCc2cc(OS(=O)(=O)c3cccc4ccccc34)ccc2N1: 30.54

Okay, now this molecule:
Query block: Hello, please tell me recorded MCHC for this one: C=CCOC(=O)COc1ccc2c(c1)CCC(=O)N2
Result block: 31.20

###

Test: In vivo GBM rat model: haematology
Applied Conditions: GBM rats, 30 mg/kg oral, 5 days, blood at necropsy
Recorded RBC, one value per entry.

1) O=C1CCc2cc(OS(=O)(=O)c3cccc4ccccc34)ccc2N1 [TR-G045]: 8.34 10^12/L
2) CC(C)CCOc1ccc2c(c1)CCC(=O)N2 [TR-G002]: 8.11 10^12/L
3) C=CCOC(=O)COc1ccc2c(c1)CCC(=O)N2 [TR-G071]: 8.56 10^12/L
4) COc1cc(NC(=O)COc2ccc3c(c2)CCC(=O)N3)cc(OC)c1 [TR-G091]: 7.73 10^12/L
5) O=C(COc1ccc2c(c1)CCC(=O)N2)N/N=C/c1cnc(-c2ccc(Cl)cc2)nc1 [TR-G066]: 8.12 10^12/L
6) C=Cc1ccc(COc2ccc3c(c2)CCC(=O)N3)cc1 [TR-G053]: 8.23 10^12/L

Okay, now this molecule:
Query block: Hello, please tell me recorded RBC for this one: Cn1nnc2c(C(N)=O)ncn2c1=O [TMZ, Temozolomide, reference compound]
Result block: 8.36 10^12/L
